- Test system: RARa:RXR (NR concentration 270 nM, RXRa partner concentration 90 nM)
- TEST_NAME: PBM binding z-score (relative to random genomic background probes); higher = stronger binding; sequences stand for … in GC…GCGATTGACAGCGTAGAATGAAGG

{"SEQUENCE_CHAIN": "TAGCGTAGGTCATTCAGGGGCCAGTATAGAAAGC", "PBM binding z-score": 4.5}
{"SEQUENCE_CHAIN": "CAGCCTAGGTCCGGGCCAGTATAGGAGGAACGTT", "PBM binding z-score": -1.12}
{"SEQUENCE_CHAIN": "AGGACGAGGGCAATGAGTTGATAGCACGGGTGGC", "PBM binding z-score": 0.678}
{"SEQUENCE_CHAIN": "ACTATTAGTTTAGACGAGGGCAACCGATAGGTTG", "PBM binding z-score": 1.26}
{"SEQUENCE_CHAIN": "AGAATAAGGTTAAGATCAGGGAAACAGAATACAT", "PBM binding z-score": 1.93}
{"SEQUENCE_CHAIN": "CGAACTAGGTCATTGACAGCACAGTGAATAGTAA", "PBM binding z-score": 1.77}
{"SEQUENCE_CHAIN": "CGTCCAAGGTCTAAGGTCAGTGAAGAGATGACGG", "PBM binding z-score": 3.2}
{"SEQUENCE_CHAIN": "TCTATTAGTTGATTAGGGCGACCGAAACAGCGGA", "PBM binding z-score": 0.407}
{"SEQUENCE_CHAIN": "TCTTGTAGATCAACAGGAGGTTAAGAAAGATCGA", "PBM binding z-score": 0.995}
{"SEQUENCE_CHAIN": "ATTTCTAGGTAAAGATAGTTCAGTGAATGCAAAT", "PBM binding z-score": 0.625}
{"SEQUENCE_CHAIN": "CCTACCGGGCCATTCAGAGGTCATTGATCATATG", "PBM binding z-score": 5.57}
{"SEQUENCE_CHAIN": "CGAACGAGGGCATAAGTTGATAGCAAATGCCGAT", "PBM binding z-score": 0.129}

---

- System: VDR homodimer (NR concentration 270 nM)
- TEST_NAME: PBM binding z-score (relative to random genomic background probes); higher = stronger binding; sequences stand for … in GC…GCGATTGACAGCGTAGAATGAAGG

{"SEQUENCE_CHAIN": "GCGATTAGTTGAAAGGGCAACCGAATGATTCTCG", "PBM binding z-score": 0.184}
{"SEQUENCE_CHAIN": "TCGAGTAGGTTACCAATGGGGCATTCATCTTTCT", "PBM binding z-score": -0.179}
{"SEQUENCE_CHAIN": "AGAACGAGGGCACGCTGAGTTGATACCAGAGTAG", "PBM binding z-score": 1.98}
{"SEQUENCE_CHAIN": "TCCTGTAGATCAATAGAGGTTAAGAAAGTGCGCT", "PBM binding z-score": 0.39}
{"SEQUENCE_CHAIN": "GTATATAGGTAATACAAGGTGAAAGTCCGATTGT", "PBM binding z-score": 0.367}
{"SEQUENCE_CHAIN": "TTGCCAAGGTGAGCTGAGGTCGTTGATCCAACTC", "PBM binding z-score": 1.75}
